Hey, just so you know, these numbers are from PubChem BioAssay.

assayed system: NADPH oxidase 5 (Homo sapiens)
assay procedure: NOX5-dependent H2O2 signal modulators, primary screen, NOX inhibitor project, cell-based, HEK293-NOX5, Amplex Red fluorescence (AID 1161)
condition label: HEK293-NOX5, ionomycin, 45 min, higher = more signal
Listing of recorded z-score by entry.
metric: z-score

COc1ccc(O[C@@H]2[C@H](O)CO[C@H]2C=Cc2ccccc2)cc1    -0.102
C=CC[C@@H]1C=C[C@H](ON=C(C)CCC(=O)OC[C@H]2O[C@H](C#Cc3ccccc3)C=C[C@@H]2Oc2ccc(C)cc2)[C@@H](CO)O1    -0.431
CCOC(=O)NN=C1C[C@@H](O)[C@@H](O)[C@@H]2[C@@H]3C(=O)N([C@@H](C)c4ccccc4)C(=O)[C@@H]3CC[C@@H]12    -0.143
COc1ccc(C#C[C@@H]2C=C[C@H](OC(C)=O)[C@@H](COC(C)=O)O2)cc1    0.89
O=C1C[C@@H](O)[C@@H](O)[C@@H]2[C@@H]3C(=O)N(c4cccc(Oc5ccccc5)c4)C(=O)[C@@H]3CC[C@H]12    0.124
C=CC[C@@H]1C=C[C@H](ON=C(C)CCN2CCc3nc(-c4ccccc4)c(-c4ccccc4)cc3C2)[C@@H](CO)O1    -2.75
CC(CCN1CCc2nc(-c3ccccc3)c(-c3ccccc3)cc2C1)=NOC[C@@H](O)[C@H]1O[C@@H]2OC(C)(C)O[C@@H]2[C@H]1O    -4.61
